Conditions: in acetonitrile, 313.15 K
Reported Metric: solubility (mole fraction)
Form rule: numeric answer, no unit written next to it.

Query (compound): "Cc1ccc(CO)cc1" ; field requested: solubility (mole fraction) 0.735

====

Settings: in n-butanol, 308.15 K
Reported Metric: solubility (mole fraction)
Form rule: numeric answer, no unit written next to it.

Query (compound): "Cc1ccc(CO)cc1" ; field requested: solubility (mole fraction) 0.584

====

Details: in acetone, 288.15 K
Reported Metric: solubility (mole fraction)

Query (molecule): "Cc1ccc(CO)cc1" ; field requested: solubility (mole fraction) 0.321

====

Details: in n-propanol, 278.15 K
Reported Metric: solubility (mole fraction)
Form rule: numeric answer, no unit written next to it.

Query (molecule): "Cc1ccc(CO)cc1" ; field requested: solubility (mole fraction) 0.253
